molecular target: HLA-DR DRB4*0101 (human); assay: radioligand binding
metric: IC50 (nM)
The figure you give is taken to be in nM; do not add the unit.

Look at this binder and give its reported IC50. NPILLWQPIPVHTVPLSEDQ [PAP_(133-152)]
82
